target: Autotaxin (Homo sapiens); experiment: Activity of human autotaxin in human […] cells assessed as effect on enzyme-mediated of FS3 hydrolysis at 10 uM; type: cell-based; parameters: scale not given: the % may be the effect or the level left
MEASUREMENT LABEL: Activity (%)

Completed entries (count: 5):
CCCCCCCCCCCCCCCCCCP(=O)([O-])OCC[N+](C)(C)C | 44
CCCCCCCCCCCCCCCCOP(=O)([O-])OCC[N+](C)(C)C | 92
CCCCCCC(=O)OC[C@@H](O)COP(=O)([O-])OCC[N+](C)(C)C | 97
CCCCCCCCCCCCCCCCCCC(=O)OC[C@@H](O)COP(=O)(O)O | 36
CCCCCCCCCCCCOC[C@H](O)COP(=O)([O-])CCC[N+](C)(C)C | 87

I = CCCCCCCCCCOC[C@H](O)COP(=O)([O-])CCC[N+](C)(C)C
II = CCCCCCCCCCCCCCCCC(=O)OC[C@@H](O)COP(=O)([O-])OCC[N+](C)(C)C
III = CCCCCCCC/C=C\CCCCCCCCOP(=O)([O-])OCC[N+](C)(C)C
Task item: Put the items in order so that reported Activity rises from first to last. A complete answer lists every label in the requested sequence.
Reply: III, II, I

A = CCCCCCCCCCCCCCCCOP(=O)([O-])CCC[N+](C)(C)C
B = CCCCCCCCCCCCCCCCCCCOC[C@@H](O)COP(=O)([O-])OCC[N+](C)(C)C
Task item: When A and B are compared, which has the higher number for Activity? # reply format: chosen label
Reply: A

A = CCCCCCCCC(=O)OC[C@@H](O)COP(=O)([O-])OCC[N+](C)(C)C
B = CCCCCCCCCCCCC(=O)OC[C@@H](O)COP(=O)([O-])OCC[N+](C)(C)C
Task item: Kindly compare A with B and tell me which has the lower Activity figure. # reply format: chosen label
Reply: B
(B: 66%, A: 101%)

###

target: Autotaxin (Homo sapiens) (UniProt Q13822); assay: Activity of human autotaxin in human […] cells assessed as effect on enzyme-mediated of FS3 hydrolysis at 1 uM; type: cell-based; design: scale not given: the % may be the effect or the level left
MEASUREMENT LABEL: Activity (%)

Completed entries (count: 10):
CCCCCCCCCCCCCCCCCCOP(=O)([O-])OCC[N+](C)(C)C | 116
CCCCCCCCCCCCOC[C@@H](O)COP(=O)([O-])CCC[N+](C)(C)C | 96
CCCCCCCCCCCCCCCCOP(=O)([O-])NCC[N+](C)(C)C | 81
CCCCCCCCCCCCCCC(=O)OC[C@@H](O)COP(=O)([O-])OCC[N+](C)(C)C | 80
CCCCCCCCCCCCCCCCCCCOC[C@@H](O)COP(=O)([O-])OCC[N+](C)(C)C | 86
CCCCCCCCCCCCCCCCC(=O)OC[C@@H](O)COP(=O)(O)O | 49
CCCCCCCCCCOC[C@@H](O)COP(=O)([O-])CCC[N+](C)(C)C | 95
CCCCCCC(=O)OC[C@@H](O)COP(=O)([O-])OCC[N+](C)(C)C | 100
CCCCCCCCCCCCCCCCCOC[C@@H](O)COP(=O)([O-])OCC[N+](C)(C)C | 89
CCCCCCCCCCCCCCCCOP(=O)([O-])CCC[N+](C)(C)C | 94

A = CCCCCCCCCCCCOC[C@H](O)COP(=O)([O-])CCC[N+](C)(C)C
B = CCCCCCCCC/C=C/CCCCCCCC(=O)OC[C@@H](O)COP(=O)([O-])OCC[N+](C)(C)C
C = CCCCCCCCC/C=C/CCCCCCCC(=O)OC[C@@H](O)COP(=O)(O)O
Task item: Put the items in order so that reported Activity rises from first to last. A complete answer lists every label in the requested sequence.
Reply: C, B, A

###

target: Autotaxin (Homo sapiens) (UniProt Q13822); assay: Activity of human autotaxin in human […] cells assessed as effect on enzyme-mediated of FS3 hydrolysis at 10 uM; assay type: cell-based; set-up: scale not given: the % may be the effect or the level left
MEASUREMENT LABEL: Activity (%)

P = CCCCCCCCC/C=C/CCCCCCCC(=O)OC[C@@H](O)COP(=O)([O-])OCC[N+](C)(C)C
Q = CCCCCCCCC/C=C/CCCCCCCC(=O)OC[C@@H](O)COP(=O)(O)O
Task item: Kindly compare P with Q and tell me which has the lower Activity figure. # reply format: chosen label
Reply: Q
(Q: 2%, P: 17%)

###

molecular target: Autotaxin (Homo sapiens) (UniProt Q13822); assay: Activity of human autotaxin in human […] cells assessed as effect on enzyme-mediated of FS3 hydrolysis at 10 uM; assay type: cell-based; design: scale not given: the % may be the effect or the level left
MEASUREMENT LABEL: Activity (%)

CCCCCCCCCCCCCCCCOP(=O)([O-])NCC[N+](C)(C)C | 77
CCCCCCCCCCOC[C@@H](O)COP(=O)([O-])CCC[N+](C)(C)C | 103
CCCCCCCCCCCCCCOP(=O)([O-])OCC[N+](C)(C)C | 91

###

target: Autotaxin (Homo sapiens); experiment: Activity of human autotaxin in human […] cells assessed as effect on enzyme-mediated of FS3 hydrolysis at 1 uM; format: cell-based; design: scale not given: the % may be the effect or the level left
MEASUREMENT LABEL: Activity (%)

CCCCCCCCCCCCCCOC[C@@H](O)COP(=O)([O-])CCC[N+](C)(C)C | 85
CCCCCCCCCCCCCCCCCCC(=O)OC[C@@H](O)COP(=O)(O)O | 74
CCCCCCCCCCCCCCOP(=O)([O-])NCC[N+](C)(C)C | 90
CCCCCCCCC/C=C/CCCCCCCOP(=O)([O-])NCC[N+](C)(C)C | 89
CCCCCCCCCCCCCCOP(=O)([O-])CCC[N+](C)(C)C | 90
CCCCCCCCCCCCCCCCOC[C@H](O)COP(=O)([O-])CCC[N+](C)(C)C | 86
CCCCCCCCCCCCCCCCC(=O)OC[C@@H](O)COP(=O)([O-])OCC[N+](C)(C)C | 89
CCCCCCCCCCCCCCOC[C@H](O)COP(=O)([O-])CCC[N+](C)(C)C | 95

###

molecular target: Autotaxin (Homo sapiens); assay: Activity of human autotaxin in human […] cells assessed as effect on enzyme-mediated of FS3 hydrolysis at 10 uM; format: cell-based; design: scale not given: the % may be the effect or the level left
MEASUREMENT LABEL: Activity (%)

CCCCCCCCCCCCCCOP(=O)([O-])CCC[N+](C)(C)C | 71
CCCCCCCCCCCCCCCCCCOC[C@H](O)COP(=O)([O-])CCC[N+](C)(C)C | 68
CCCCCCCCCCCCCCCCOC[C@@H](O)COP(=O)([O-])CCC[N+](C)(C)C | 72
CCCCCCCCCCCCCCOC[C@H](O)COP(=O)([O-])CCC[N+](C)(C)C | 80
CCCCCCCCCCCCCCOP(=O)([O-])NCC[N+](C)(C)C | 75
CCCCCCCCCCCCCCCCCCC(=O)OC[C@@H](O)COP(=O)([O-])OCC[N+](C)(C)C | 59
